# Test system: Pseudomonas aeruginosa PA14
# Experiment Description: OD600 after 10 h growth (baseline-subtracted); higher = more bacterial growth (less inhibition)
# Test Conditions: 32 µg/mL
Each entry below lists one item and its recorded OD600 after 10 h growth value.
Value Kind: OD600 after 10 h growth

INSERT INTO results (compound, target_entity, value_kind, measured_number) VALUES
  ('Cc1cn([C@H]2C[C@H](O)[C@@H](CO)O2)c(=O)[nH]c1=O [Thymidine]', 'Pseudomonas aeruginosa PA14', 'OD600 after 10 h growth', 0.738),
  ('CC1=C(C)C(=O)C(CCCCCCCCCC[P+](c2ccccc2)(c2ccccc2)c2ccccc2)=CC1=O [Visomitin]', 'Pseudomonas aeruginosa PA14', 'OD600 after 10 h growth', 0.681),
  ('CC(C)(C)c1ccc(C(=O)CCCN2CCC(OC(c3ccccc3)c3ccccc3)CC2)cc1 [Ebastine]', 'Pseudomonas aeruginosa PA14', 'OD600 after 10 h growth', 0.697),
  ('Cc1c(Cl)c(C)[n+]([O-])c(Cl)c1-c1noc(-c2cc(O)c(O)c([N+](=O)[O-])c2)n1 [Opicapone]', 'Pseudomonas aeruginosa PA14', 'OD600 after 10 h growth', 0.678);

----------
# Tested on: Escherichia coli IAI1
# Experiment Description: OD600 after 10 h growth (baseline-subtracted); higher = more bacterial growth (less inhibition)
# Test Conditions: 16 µg/mL
Each entry below lists one item and its recorded OD600 after 10 h growth value.
Value Kind: OD600 after 10 h growth

INSERT INTO results (compound, measured_number) VALUES
  ('Cc1c(Cl)c(C)[n+]([O-])c(Cl)c1-c1noc(-c2cc(O)c(O)c([N+](=O)[O-])c2)n1 [Opicapone]', 0.798),
  ('CC(C)(C)c1ccc(C(=O)CCCN2CCC(OC(c3ccccc3)c3ccccc3)CC2)cc1 [Ebastine]', 0.848),
  ('COc1cc2c(cc1Cc1cccc(Cl)c1F)c(=O)c(C(=O)O)cn2[C@H](CO)C(C)C [Elvitegravir]', 0.836),
  ('Cc1cn([C@H]2C[C@H](O)[C@@H](CO)O2)c(=O)[nH]c1=O [Thymidine]', 0.804),
  ('CC(=O)N[C@H](Cc1ccc2ccccc2c1)C(=O)N[C@H](Cc1ccc(Cl)cc1)C(=O)N[C@H](Cc1cccnc1)C(=O)N[C@@H](CO)C(=O)N[C@@H](Cc1ccc(O)cc1)C(=O)N[C@H](CCCNC(N)=O)C(=O)N[C@@H](CC(C)C)C(=O)N[C@@H](CCCNC(=N)N)C(=O)N1CCC[C@H]1C(=O)N[C@H](C)C(N)=O [Cetrorelix]', 0.837),
  ('CC1=C(C)C(=O)C(CCCCCCCCCC[P+](c2ccccc2)(c2ccccc2)c2ccccc2)=CC1=O [Visomitin]', 0.045);

----------
# Tested on: Pseudomonas aeruginosa PA14
# Experiment Description: OD600 after 10 h growth (baseline-subtracted); higher = more bacterial growth (less inhibition)
# Test Conditions: 0.2 µg/mL
Value Kind: OD600 after 10 h growth

INSERT INTO measurements (compound, target_entity, value_kind, measured_number) VALUES
  ('COc1cc2c(cc1Cc1cccc(Cl)c1F)c(=O)c(C(=O)O)cn2[C@H](CO)C(C)C [Elvitegravir]', 'Pseudomonas aeruginosa PA14', 'OD600 after 10 h growth', 0.747),
  ('CC(=O)N[C@H](Cc1ccc2ccccc2c1)C(=O)N[C@H](Cc1ccc(Cl)cc1)C(=O)N[C@H](Cc1cccnc1)C(=O)N[C@@H](CO)C(=O)N[C@@H](Cc1ccc(O)cc1)C(=O)N[C@H](CCCNC(N)=O)C(=O)N[C@@H](CC(C)C)C(=O)N[C@@H](CCCNC(=N)N)C(=O)N1CCC[C@H]1C(=O)N[C@H](C)C(N)=O [Cetrorelix]', 'Pseudomonas aeruginosa PA14', 'OD600 after 10 h growth', 0.742);

Every entry's value here was drawn from the supplement of paper PMC11986102.
